TARGET_OF_ASSAY: WRKY33_C (Arabidopsis thaliana, UniProt Q8S8P5 345-422)
Sequence (Q8S8P5 345-422): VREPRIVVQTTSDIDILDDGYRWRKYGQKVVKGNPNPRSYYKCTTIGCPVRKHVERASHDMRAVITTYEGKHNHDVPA
ASSAY: EMSA; no SIB1; estimated from band intensity (an earlier response in the peer review file prints 150 uM, called sub-micromolar); EMSA: NMR buffer (composition not given in material) with 100 mM NaCl, 1.0 ng dsDNA in 20 ul, room temperature 20 min, SIB1:WRKY33_C 2:1; gel in 0.5x TBE, GelRed stain
STATED_CONDITIONS: protein: recombinant; tags: C-terminal 6xHis; blunt
READOUT_TYPE: Kd

Prompt line: # input binder: W-box DNA (dsDNA) DNA 1: AAAGTTGACCAA DNA 2: TTGGTCAACTTT ; wanted: its Kd
Response line: ~0.15 µM
